- protocol text: The drug is tested on Bacteroides dorei strain: DSM17855 for biotransformation. The drug concentrations were measured before and after a 12-h incubation by liquid-chromatography-coupled mass spectrometry (LC–MS)
- experimental setup: phocaeicola dorei, 2 µM

compound: OCCOCCN1CCN(C2=Nc3ccccc3Sc3ccccc32)CC1
Bacterial Biotransformation: Compound NOT metabolized
--
compound: COCCCC/C(=N\OCCN)c1ccc(C(F)(F)F)cc1.O=C(O)/C=C\C(=O)O [FLUVOXAMINE MALEATE]
Bacterial Biotransformation: Compound NOT metabolized
--
compound: Clc1cccc(Cl)c1N=C1NCCN1
Bacterial Biotransformation: Compound metabolized
--
compound: O=C1CC2(CCCC2)CC(=O)N1CCCCN1CCN(c2ncccn2)CC1
Bacterial Biotransformation: Compound NOT metabolized
--
compound: CN/C(=N/CCSCc1nc[nH]c1C)NC#N
Bacterial Biotransformation: Compound metabolized
